System: Ischemia-Reperfusion-Induced Gastric Lesions
Assay: Ischemia-Reperfusion-Induced Gastric Lesions
Type: in vivo, male SD rats
Conditions: dose 40 mg/kg in dimethylsulfoxide from the caudal artery 30 minutes before beginning collection of the blood
Marks after values point to notes of the source that are not given here.
Consider the following compounds and their measured Ischemia-Reperfusion, inhibiting ratio readings.
value_kind: Ischemia-Reperfusion, inhibiting ratio

[[record]]
compound = "CC1=CC(OC(=O)c2cccn2C)C(O)C(C)(C)CC1=O (stereo not drawn) [AU501]"
measured_result = "77(40)**"

[[record]]
compound = "COC1C=C(C)C(=O)CC(C)(C)C1OC(=O)c1ccc(N)cc1N (stereo not drawn) [AU408]"
measured_result = "75(40)**"

[[record]]
compound = "COC12CC(C)(C)C(O1)C(O)CC2C (stereo not drawn) [AU105B]"
measured_result = "52(40)*"

[[record]]
compound = "CC1=CC(OC(=O)c2ccc([N+](=O)[O-])cc2)C(O)C(C)(C)CC1=O (stereo not drawn) [AU212]"
measured_result = "63(40)**"

[[record]]
compound = "CC1=CC(OC(=O)c2ccc(N)cc2)C(O)C(C)(C)CC1=O (stereo not drawn) [AU215]"
measured_result = "90(40)**"

[[record]]
compound = "COC12CC(C)(C)C(O1)C(OC(=O)c1ccc(N)cc1)C=C2C (stereo not drawn) [AU245]"
measured_result = "93(40)**"


====

System: Hydrochloric acid-Ethanol-Induced Ulcers
Experiment: Hydrochloric acid-Ethanol-Induced Ulcers
Format: in vivo, male Wister rats
Settings: Rattus norvegicus, intraduodenal, 1 h, Table 2; dose 5 mg/kg intraduodenally one hour before hydrochloric acid - 60% ethanol; read-out: Inhibition ratio(%)
Description: Experiments on Hydrochloric acid-Ethanol-Induced Ulcers, Aspirin-Induced Ulcers, Water-Immersion stress-Induced Ulcers, Shay's Ulcers and Serotonin-Induced Ulcers were carried out using male Wister rats weighing about 200g in groups of six. […] Activities against respective ulcer models were evaluated by an inhibiting ratio obtained by dividing the difference between the ulceration indexes of the non-administered group and the test compound group by the non-administered group. […]
value_kind: inhibition in vivo at 5 mg/kg (%)

[[record]]
compound = "COC12CC(C)(C)C(O1)C(OC(C)=O)C=C2C (stereo not shown)"
test_target = "Hydrochloric acid-Ethanol-Induced Ulcers"
value_kind = "inhibition in vivo at 5 mg/kg"
measured_result = 33

[[record]]
compound = "COC12CC(C)(C)C(OC(C)=O)C(C=C1C)O2 (stereo not shown)"
test_target = "Hydrochloric acid-Ethanol-Induced Ulcers"
value_kind = "inhibition in vivo at 5 mg/kg"
measured_result = 94

[[record]]
compound = "COC12CC(C)(C)C(O1)C(OCc1ccccc1)C=C2C (stereo not shown)"
test_target = "Hydrochloric acid-Ethanol-Induced Ulcers"
value_kind = "inhibition in vivo at 5 mg/kg"
measured_result = 64

[[record]]
compound = "COC1C=C(C)C2(OC)CC(C)(C)C1O2 (stereo not shown)"
test_target = "Hydrochloric acid-Ethanol-Induced Ulcers"
value_kind = "inhibition in vivo at 5 mg/kg"
measured_result = 93


====

Tested on: Hydrochloric acid-Ethanol-Induced Ulcers
Assay: Hydrochloric acid-Ethanol-Induced Ulcers
Format: in vivo, male Wister rats
Conditions: Rattus norvegicus, intraduodenal, 1 h, Table 2; dose 10 mg/kg intraduodenally one hour before hydrochloric acid - 60% ethanol; read-out: Inhibition ratio(%)
Decide using inhibition in vivo at 10 mg/kg: a value greater than or equal to 80% is Criterion met, a smaller one is Criterion not met.

[[record]]
molecule = "COC1C=C(C)C(=O)CC(C)(C)C1O (stereo not drawn) [AU154]"
assigned_label = "Criterion not met"

[[record]]
molecule = "CC1=CC(OCc2ccccc2)C(O)C(C)(C)CC1=O (stereo not drawn) [AU156]"
assigned_label = "Criterion met"

[[record]]
molecule = "CC1=CC(O)C(O)C(C)(C)CC1=O (stereo not drawn) [Saishin N]"
assigned_label = "Criterion not met"

[[record]]
molecule = "COC12CC(C)(C)C(O1)C(OC(C)=O)CC2C (stereo not drawn) [AU108A]"
assigned_label = "Criterion not met"

[[record]]
molecule = "CC(=O)OC1C=C(C)C(=O)CC(C)(C)C1OC(C)=O (stereo not drawn) [AU102]"
assigned_label = "Criterion not met"

[[record]]
molecule = "COC1C=C(C)C2(OC)CC(C)(C)C1O2 (stereo not drawn) [AU155]"
assigned_label = "Criterion met"

[[record]]
molecule = "COC12CC(C)(C)C(O1)C(O)CC2C (stereo not drawn) [AU105B]"
assigned_label = "Criterion met"

[[record]]
molecule = "COC12CC(C)(C)C(O)C(C=C1C)O2 (stereo not drawn) [AU153]"
assigned_label = "Criterion not met"

[[record]]
molecule = "COC12CC(C)(C)C(OC(C)=O)C(C=C1C)O2 (stereo not drawn) [AU159]"
assigned_label = "Criterion met"

